molecular target: T1, recombinant human HPC4-tagged IL-6 (human, UniProt P05231 30-212); experiment: SPR, HPC4-IL-6 captured on anti-HPC4 antibody, VHH injected, 25 C, 1:1 model
T1 construct: captured on an anti-HPC4 antibody in SPR; also called HPC4-human IL6
T1 sequence (P05231 other isoform, or with tags, fused parts or gaps limits assumed): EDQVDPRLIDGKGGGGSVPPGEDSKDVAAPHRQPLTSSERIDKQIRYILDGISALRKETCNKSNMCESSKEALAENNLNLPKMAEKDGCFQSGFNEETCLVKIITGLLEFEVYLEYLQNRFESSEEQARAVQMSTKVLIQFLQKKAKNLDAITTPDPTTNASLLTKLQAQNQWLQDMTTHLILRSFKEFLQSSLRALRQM
Measure: kon
Please state the number and follow it with the unit.

Need kon for each of these binders.
1. Compound 2 (VHH, Chem. 24 (C16 diacid substituent) on Cys in position 4 and on Cys in position 6 of the extension (SEQ ID NO: 72), Polypeptide derivative; extension E2 at the C-terminus of the VHH; also called VHH_1.13-E2 with 2x Chem. 24) VHH: EVQLVESGGGLVQAGGSLQLSCTASGGTFSEYAMAWFRQAPGQEREFVTDIGESGGTWYADSVKGRFTISRDNAKNTVYLQMDSLRPEDTAVYYCAADSYGVGGGAERYYDSWGQGTQVTVSS
2. Polypeptide_27 (VHH, VHH_1.4 with C-terminal His tag extension E1; also called [VHH_1.4]-E1) VHH: EVQLVESGGGLVQPGGSLQLSCTTSGRKFDEYAVGWFRQAPGKEREFVADIGENAENTWYAHSVLGRFTISRDDAKNTVYLQMDSLKPEDTAVYYCAADKYGVGGNAQGYYDSWGQGTQVTVSS

Ans.
["6.66e+06 M⁻¹ s⁻¹", "2.16e+07 M⁻¹ s⁻¹"]
